Sourced from ChEMBL document CHEMBL1135907

Each item that follows carries a reported Activity.
experiment: Plasma glucose-lowering activity at a dosage of 0.001% in the diet in KKAy mice; format: functional, Mus musculus
Respond using a number only.

Compound | Activity
Cc1oc(-c2ccccc2)nc1CCOc1ccc(CCCC2OC(=O)NC2=O)cc1 (stereo not given) | 11

What the record says about Cc1sc(-c2ccccc2)nc1COc1ccc(CCCC2OC(=O)NC2=O)cc1 (stereo not given) : Activity is 15

What the record says about Cc1oc(-c2ccccc2)nc1COc1ccc(CCCC2OC(=O)NC2=O)cc1 (stereo not given) : Activity is 53

Reported Activity ( Cc1oc(-c2cc3ccccc3o2)nc1COc1ccc(CCCC2OC(=O)NC2=O)cc1 (stereo not given) ) = 27

Kindly note the recorded Activity for COc1cc(CCCC2OC(=O)NC2=O)ccc1OCc1nc(-c2ccco2)oc1C (stereo in doubt; 64) , which is 39

Lab note: measured Activity of Cc1oc(-c2cc3ccccc3s2)nc1COc1ccc(CCCC2OC(=O)NC2=O)cc1 (stereo not given) was 25

Recorded result, Cc1oc(-c2ccc3ccccc3c2)nc1COc1ccc(CCCC2OC(=O)NC2=O)cc1 (stereo not given) , Activity: 45

Lab note: Cc1oc(-c2ccccc2)nc1COc1ccc(CCC2OC(=O)NC2=O)cc1 (stereo not given) gave Activity of 28

Reported Activity ( COc1cc(CCCC2OC(=O)NC2=O)ccc1OCc1nc(-c2ccccc2)oc1C (stereo not given) ) = 48

====

assay: Plasma lipid-lowering activity at a dosage of 0.005% in the diet in KKA(y) mice.; type: functional, Mus musculus
Each record's class is read off its Activity using these ranges: lower = under 30, middle = from 30 up to 60, upper = 60 and over

Molecule | Assigned category
Cc1oc(-c2cc3ccccc3s2)nc1COc1ccc(CCCC2OC(=O)NC2=O)cc1 (centres undefined) | upper
Cc1oc(-c2ccccc2)nc1CCOc1ccc(/C=C/C=C2\SC(=O)NC2=O)cc1 | lower
Cc1oc(-c2ccccc2)nc1CCC(O)c1ccc(CCCC2OC(=O)NC2=O)cc1 (centres undefined) | lower
Cc1sc(-c2ccccc2)nc1COc1ccc(CCCC2OC(=O)NC2=O)cc1 (centres undefined) | middle
Cc1oc(-c2ccccc2)nc1CCOc1ccc(CCCC2SC(=O)NC2=O)cc1 (centres undefined) | lower

Next molecule, please.
Looking at Cc1oc(-c2ccccc2)nc1CCOc1ccc(CCCC2OC(=O)NC2=O)cc1 (centres undefined) , which class would you pick?
middle

====

assay: Plasma lipid-lowering activity at a dosage of 0.001% in the diet in KKAy mice; format: functional, Mus musculus
Binarize Activity at 30; below is Y, at or above is N.

Molecule | Assigned category
COc1cc(CCCC2OC(=O)NC2=O)ccc1OCc1nc(-c2ccco2)oc1C (stereo in doubt; (+)-64) | N
Cc1oc(-c2ccc3ccccc3c2)nc1COc1ccc(CCCC2OC(=O)NC2=O)cc1 (stereo not given) | N
COc1cc(CCCC2SC(=O)NC2=O)ccc1OCc1nc(-c2ccccc2)oc1C (stereo not given) | Y

Field: below-cutoff. Rule: recorded Activity strictly less than 30. Subject: Cc1oc(-c2ccccc2)nc1CCOc1ccc(CCCC2OC(=O)NC2=O)cc1 (stereo not given)
Y

I'd appreciate it if you could check whether Cc1oc(-c2ccccc2)nc1COc1ccc(CCCC2OC(=O)NC2=O)cc1 (stereo not given) has Activity smaller than 30.
N
